targetSystem: truncated form of human NaV 1.8 with full channel activity (Homo sapiens, UniProt Q9Y5Y9)
Sequence (Q9Y5Y9 126-1722 limits assumed): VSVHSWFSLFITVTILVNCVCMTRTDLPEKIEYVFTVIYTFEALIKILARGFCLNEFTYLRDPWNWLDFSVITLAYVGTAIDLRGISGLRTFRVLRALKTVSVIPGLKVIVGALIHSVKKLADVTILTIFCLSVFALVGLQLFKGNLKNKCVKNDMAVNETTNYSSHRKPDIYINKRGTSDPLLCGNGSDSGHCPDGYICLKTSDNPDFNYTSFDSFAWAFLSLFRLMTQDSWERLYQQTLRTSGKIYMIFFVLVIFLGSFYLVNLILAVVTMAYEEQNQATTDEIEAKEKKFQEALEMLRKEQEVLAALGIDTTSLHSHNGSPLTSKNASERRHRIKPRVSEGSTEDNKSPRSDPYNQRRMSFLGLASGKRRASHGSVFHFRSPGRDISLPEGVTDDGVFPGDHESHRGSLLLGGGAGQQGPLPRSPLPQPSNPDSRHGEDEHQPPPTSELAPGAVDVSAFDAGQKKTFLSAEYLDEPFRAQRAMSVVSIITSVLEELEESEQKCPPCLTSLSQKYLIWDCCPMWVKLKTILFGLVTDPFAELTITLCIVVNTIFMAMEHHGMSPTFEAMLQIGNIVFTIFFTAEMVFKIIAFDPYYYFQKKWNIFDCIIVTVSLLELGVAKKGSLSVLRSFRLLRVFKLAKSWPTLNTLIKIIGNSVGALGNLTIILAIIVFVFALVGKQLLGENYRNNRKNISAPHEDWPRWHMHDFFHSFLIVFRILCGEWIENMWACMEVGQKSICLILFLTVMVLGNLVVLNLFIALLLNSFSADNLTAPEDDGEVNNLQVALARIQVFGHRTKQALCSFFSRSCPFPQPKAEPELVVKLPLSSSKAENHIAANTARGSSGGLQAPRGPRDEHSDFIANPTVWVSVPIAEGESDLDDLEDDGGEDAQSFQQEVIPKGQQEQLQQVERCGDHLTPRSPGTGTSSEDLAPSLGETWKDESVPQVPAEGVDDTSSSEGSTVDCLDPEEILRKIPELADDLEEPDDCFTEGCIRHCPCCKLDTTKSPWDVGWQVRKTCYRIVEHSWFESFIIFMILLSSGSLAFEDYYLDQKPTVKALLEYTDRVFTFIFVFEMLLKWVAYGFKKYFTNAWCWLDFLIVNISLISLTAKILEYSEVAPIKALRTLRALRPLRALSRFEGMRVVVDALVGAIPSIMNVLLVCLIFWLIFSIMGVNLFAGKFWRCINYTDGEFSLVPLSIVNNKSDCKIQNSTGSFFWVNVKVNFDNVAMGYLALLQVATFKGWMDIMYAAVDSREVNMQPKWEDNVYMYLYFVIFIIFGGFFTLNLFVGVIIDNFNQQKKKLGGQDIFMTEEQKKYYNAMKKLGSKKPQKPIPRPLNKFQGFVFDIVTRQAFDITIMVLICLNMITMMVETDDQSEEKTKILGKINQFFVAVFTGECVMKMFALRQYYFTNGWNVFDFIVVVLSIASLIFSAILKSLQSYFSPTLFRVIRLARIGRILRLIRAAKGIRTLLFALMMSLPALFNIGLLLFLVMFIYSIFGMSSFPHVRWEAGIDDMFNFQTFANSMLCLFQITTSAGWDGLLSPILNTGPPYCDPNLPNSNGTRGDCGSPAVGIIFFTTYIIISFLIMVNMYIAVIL
experimentNotes: E-VIPR Assay Method A for detecting and measuring Nav inhibition (HEK cells, membrane potential FRET dyes, electrical stimulation)
Format: cell-based
conditionNotes: HEK cells expressing human NaV 1.8, HS (human serum) in compound loading buffer, 11 point dose response, top dose 3 μM, Table 20A, read-out: Nav 1.8 MedChem Optical Assay EVIPR Assay Method A HS IC50
IC50 overview
measuredEndpoint: IC50 (nM)

compound	targetSystem	measuredEndpoint	obsValue
COc1cc(OC(F)(F)F)ccc1Oc1ccc(F)c(Cl)c1C(=O)Nc1cc(C(N)=O)ncc1C	truncated form of human NaV 1.8 with full channel activity (Homo sapiens, UniProt Q9Y5Y9)	IC50	69
COc1cc(OC(F)(F)F)ccc1Oc1cc(C(F)(F)F)cc(F)c1C(=O)Nc1cc(C(N)=O)c(F)cc1C	truncated form of human NaV 1.8 with full channel activity (Homo sapiens, UniProt Q9Y5Y9)	IC50	85
NC(=O)c1cc(NC(=O)c2c(Oc3ccc(OC(F)(F)F)cc3)ccc3c2CCC3(F)F)ccc1F	truncated form of human NaV 1.8 with full channel activity (Homo sapiens, UniProt Q9Y5Y9)	IC50	32
NC(=O)c1cc(NC(=O)c2c(Oc3ccc(OC(F)(F)F)cc3)cc(OCc3ccccc3)c(C(F)(F)F)c2F)ccc1F	truncated form of human NaV 1.8 with full channel activity (Homo sapiens, UniProt Q9Y5Y9)	IC50	18
COc1cc(OC(F)(F)F)ccc1Oc1ccc(C(F)(F)F)c(F)c1C(=O)Nc1cccc(C(N)=O)c1	truncated form of human NaV 1.8 with full channel activity (Homo sapiens, UniProt Q9Y5Y9)	IC50	5
COc1cc(OC(F)(F)F)ccc1Oc1cc(C2C[C@@H]2C)ncc1C(=O)Nc1ccc(F)c(C(N)=O)c1 (mixture of isomers)	truncated form of human NaV 1.8 with full channel activity (Homo sapiens, UniProt Q9Y5Y9)	IC50	15
COc1cc(OC(F)(F)F)ccc1Oc1cc(C(F)(F)F)c(F)cc1C(=O)Nc1ccnc(C(N)=O)c1	truncated form of human NaV 1.8 with full channel activity (Homo sapiens, UniProt Q9Y5Y9)	IC50	26
NC(=O)c1cc(NC(=O)c2c(Oc3ccc(OC(F)(F)F)cc3)cccc2C(F)(F)F)ccc1F	truncated form of human NaV 1.8 with full channel activity (Homo sapiens, UniProt Q9Y5Y9)	IC50	210
NC(=O)c1ccc(NC(=O)c2c(Cl)cc(Cl)cc2Oc2ccc(F)cc2)cn1	truncated form of human NaV 1.8 with full channel activity (Homo sapiens, UniProt Q9Y5Y9)	IC50	2100
COc1cc(OC(F)(F)F)ccc1Oc1cc(C(F)(F)F)ncc1C(=O)Nc1ccnc(C(N)=O)c1	truncated form of human NaV 1.8 with full channel activity (Homo sapiens, UniProt Q9Y5Y9)	IC50	83
COc1c(Oc2ccc(C(F)(F)F)c(F)c2C(=O)Nc2ccc(F)c(C(N)=O)c2)ccc(OC(F)(F)F)c1F	truncated form of human NaV 1.8 with full channel activity (Homo sapiens, UniProt Q9Y5Y9)	IC50	0.9
COc1cc(OC(F)(F)F)ccc1Oc1cc([C@H]2C[C@@H]2C)ncc1C(=O)Nc1ccnc(C(N)=O)c1 (single isomer, unassigned)	truncated form of human NaV 1.8 with full channel activity (Homo sapiens, UniProt Q9Y5Y9)	IC50	200
NC(=O)c1cc(NC(=O)c2c(Oc3ccc(OC(F)(F)F)cc3)ccc(OC(F)(F)F)c2F)ccn1	truncated form of human NaV 1.8 with full channel activity (Homo sapiens, UniProt Q9Y5Y9)	IC50	24
COc1cc(OC(F)(F)F)ccc1Oc1cncc(F)c1C(=O)Nc1ccc(F)c(C(N)=O)c1	truncated form of human NaV 1.8 with full channel activity (Homo sapiens, UniProt Q9Y5Y9)	IC50	180
COc1cc(OC(F)(F)F)ccc1Oc1cc(Cl)cc(F)c1C(=O)Nc1ccc(C(N)=O)nc1	truncated form of human NaV 1.8 with full channel activity (Homo sapiens, UniProt Q9Y5Y9)	IC50	66
